Numbers sourced from ChEMBL document CHEMBL4482310.

biological target: GRB2-associated-binding protein 1 (Homo sapiens); test: Binding affinity to recombinant human GAB1 PH domain expressed in Escherichia coli BL21 (DE3) by surface plasmon resonance assay; settings: read-out: Kd
Sequence (Q13480 whole entry, the tested form may be a part): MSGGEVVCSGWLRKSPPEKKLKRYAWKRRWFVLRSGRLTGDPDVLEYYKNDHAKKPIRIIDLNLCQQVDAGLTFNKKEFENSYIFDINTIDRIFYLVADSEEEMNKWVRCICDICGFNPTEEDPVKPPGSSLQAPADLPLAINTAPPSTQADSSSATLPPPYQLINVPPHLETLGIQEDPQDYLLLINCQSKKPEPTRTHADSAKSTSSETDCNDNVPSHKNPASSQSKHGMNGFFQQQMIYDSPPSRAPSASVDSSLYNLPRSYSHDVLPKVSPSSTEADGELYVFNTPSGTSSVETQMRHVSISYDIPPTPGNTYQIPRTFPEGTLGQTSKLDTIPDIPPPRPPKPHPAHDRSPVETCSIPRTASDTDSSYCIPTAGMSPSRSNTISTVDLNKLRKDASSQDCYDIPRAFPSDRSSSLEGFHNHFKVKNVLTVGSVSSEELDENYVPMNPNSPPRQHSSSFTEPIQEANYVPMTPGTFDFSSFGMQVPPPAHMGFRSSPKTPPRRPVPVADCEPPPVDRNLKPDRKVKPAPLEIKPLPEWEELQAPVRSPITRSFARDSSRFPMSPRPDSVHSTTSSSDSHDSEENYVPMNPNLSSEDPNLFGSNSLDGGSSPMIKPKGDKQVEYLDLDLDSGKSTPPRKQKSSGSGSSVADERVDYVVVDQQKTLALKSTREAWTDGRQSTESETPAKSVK
Endpoint name: Kd (µM)

Compound	Endpoint name	Value reported
CS(=O)(=O)CCSc1ncccc1C(=O)Sc1ccc(Cl)cc1Cl	Kd	42.3

[A] CCCCCCCCCCCCc1ccc(S(=O)(=O)Nc2nnc(C(=O)OCC)s2)cc1
[B] Cn1cnc(S(=O)(=O)Nc2ccccc2SCCS(=O)(=O)c2ccc(Cl)cc2)c1
IN: Could you please tell me which of these two has the higher Kd: A or B ? // output: label of the selected item
OUT: B

[P] O=c1[nH]nc(SCc2csc(-c3ccccc3)n2)n1Cc1ccco1
[Q] CCCCCCCCCCCCc1ccc(S(=O)(=O)Nc2nnc(CC(=O)OCC)s2)cc1
IN: Field: lower recorded Kd (choose P or Q ) // output: label of the selected item
OUT: Q
(Q: 0.9 µM, P: 2.2 µM)

---

system: MCF-10A; test: Cytotoxicity in human MCF10A cells assessed as reduction in cell viability incubated for 4 days by MTT assay; type: cell-based; settings: 96 h
Endpoint name: Activity

// worked examples, Activity included
Compound	Value reported
CCCCCCCCCCCCc1ccc(S(=O)(=O)Nc2nnc(C(=O)OCC)s2)cc1	Non-Toxic
CCCCCCCCCCCCc1ccc(S(=O)(=O)Nc2nnc(CC(=O)OCC)s2)cc1	Non-Toxic
O=S(=O)(NCc1csc2ccc(Cl)cc12)c1cc(S(=O)(=O)c2ccccc2)cs1	Non-Toxic
O=c1[nH]nc(SCc2csc(-c3ccccc3)n2)n1Cc1ccco1	Non-Toxic

Here is another molecule to look at.
IN: Form field: reported Activity of CS(=O)(=O)CCSc1ncccc1C(=O)Sc1ccc(Cl)cc1Cl
OUT: Non-Toxic
